This listing pairs compounds with measured EC50.
assayTarget: UniProt:P28335
Sequence (P28335 33-458): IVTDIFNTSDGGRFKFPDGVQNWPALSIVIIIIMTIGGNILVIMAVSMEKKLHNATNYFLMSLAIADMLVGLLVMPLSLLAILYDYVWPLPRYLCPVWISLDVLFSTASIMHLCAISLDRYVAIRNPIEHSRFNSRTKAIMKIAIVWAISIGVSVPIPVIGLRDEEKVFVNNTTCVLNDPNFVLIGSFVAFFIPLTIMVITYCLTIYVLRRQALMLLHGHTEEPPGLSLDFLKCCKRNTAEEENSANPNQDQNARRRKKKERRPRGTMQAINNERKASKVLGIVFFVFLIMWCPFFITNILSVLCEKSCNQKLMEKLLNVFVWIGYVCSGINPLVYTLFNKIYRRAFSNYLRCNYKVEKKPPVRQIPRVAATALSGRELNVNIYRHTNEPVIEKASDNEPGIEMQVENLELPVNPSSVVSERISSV
testName: 5-HT receptor panel, 5-HT2C agonist EC50 (readout not stated)
Counter-ions that a name gives are not always drawn.
Return type: number; implicit unit nM.

- Cc1cc(Cl)cc(CNC(C)Cc2c[nH]c3ccccc23)c1 (stereo not drawn) [Compound 2]: 102
- COc1cc2c(CCNCc3cc(C)cc(Cl)c3)c[nH]c2cc1I [Compound 4]: 384
- CCn1cc(CCNCc2cc(C)cc(Cl)c2)c2ccccc21 [Compound 7, hydrochloride]: 4
- Cc1cc(Cl)cc(CNCCc2c[nH]c3ccccc23)c1 [Compound 1]: 28

Could you now consider this next compound?
Recorded result, Cc1cc(Cl)cc(CNCCc2cn(C)c3ccccc23)c1 [Compound 5] , EC50: 116

----------
assayTarget: 5-HT2A (Homo sapiens)
testName: PathHunter β-Arrestin assay
Sequence (P28223 whole entry): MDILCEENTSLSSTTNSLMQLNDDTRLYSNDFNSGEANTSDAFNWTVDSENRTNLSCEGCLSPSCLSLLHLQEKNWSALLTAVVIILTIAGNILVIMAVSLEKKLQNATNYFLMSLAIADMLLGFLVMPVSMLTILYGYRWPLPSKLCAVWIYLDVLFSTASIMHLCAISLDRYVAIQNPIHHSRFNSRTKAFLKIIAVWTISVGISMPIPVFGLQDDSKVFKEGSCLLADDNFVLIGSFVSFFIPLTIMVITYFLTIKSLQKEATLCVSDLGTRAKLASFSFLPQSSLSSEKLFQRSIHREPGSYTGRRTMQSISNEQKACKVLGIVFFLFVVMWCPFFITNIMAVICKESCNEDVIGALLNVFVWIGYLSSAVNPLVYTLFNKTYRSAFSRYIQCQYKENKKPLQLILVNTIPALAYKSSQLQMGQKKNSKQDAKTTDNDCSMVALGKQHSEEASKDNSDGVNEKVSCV
Sequence (P32121 whole entry, further chain): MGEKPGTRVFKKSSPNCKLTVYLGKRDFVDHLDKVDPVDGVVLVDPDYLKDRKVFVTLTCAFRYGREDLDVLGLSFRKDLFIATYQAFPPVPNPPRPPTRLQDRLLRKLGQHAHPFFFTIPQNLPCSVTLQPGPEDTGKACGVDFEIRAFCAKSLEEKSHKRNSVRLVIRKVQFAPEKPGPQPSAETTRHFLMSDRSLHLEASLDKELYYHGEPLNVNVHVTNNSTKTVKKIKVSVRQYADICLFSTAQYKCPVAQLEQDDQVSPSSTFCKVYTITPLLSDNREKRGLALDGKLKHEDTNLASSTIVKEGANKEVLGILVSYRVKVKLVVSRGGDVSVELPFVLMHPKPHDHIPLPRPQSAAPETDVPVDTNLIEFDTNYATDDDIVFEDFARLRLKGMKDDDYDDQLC
pEC50: −log10 of the molar value. Structures can show the parent of a compound that is named as a salt.
Criterion: pEC50 meeting or surpassing 7. Met: t. Not met: f.

Before answering, review these 4 worked examples.
- Cc1cc(Cl)cc(CNCCc2cn(C)c3ccccc23)c1 [Compound 5]: t
- Cc1cc(Cl)cc(CNC(C)Cc2c[nH]c3ccccc23)c1 (stereo not drawn) [Compound 2]: f
- Cc1cc(Cl)cc(CNCCc2c(C)[nH]c3ccccc23)c1 [Compound 9, hydrochloride]: t
- COc1cc2c(CCNCc3cc(C)cc(Cl)c3)c[nH]c2cc1I [Compound 4]: t

Prompt: Reported pEC50 at or above 7? Cc1cc(Cl)cc(CNCCc2c[nH]c3ccccc23)c1 [Compound 1]
Completion: t

Prompt: Please check the record CCn1cc(CCNCc2cc(C)cc(Cl)c2)c2ccccc21 [Compound 7, hydrochloride] and state if its pEC50 is at or above 7.
Completion: t

----------
assayTarget: 5-HT2A (Homo sapiens, UniProt P28223)
testName: Calcium Mobilization Assay (Calcium No-WashPLUS, Gq, FLIPR)
Type: cell-based
testContext: read-out: 5-HT2A % activation @30 uM Ca++ Flux
Sequence (P28223 whole entry): as the sequence (P28223 whole entry) above
Where a name gives a salt, the structure may show the parent alone.
observationType: activation at 30 µM (%)
Respond numerically; units are % and should not be typed.

Worked examples follow.
- Cc1cc(Cl)cc(CNCCc2c[nH]c3ccccc23)c1: 77.8
- CCn1cc(CCNCc2cc(C)cc(Cl)c2)c2ccccc21 [Compound 7, hydrochloride]: 95.9
- Cc1cc(Cl)cc(CNCCc2c(C)[nH]c3ccccc23)c1 [Compound 9, hydrochloride]: 88.9
- Cc1cc(Cl)cc(CNCCc2nn(C)c3ccccc23)c1: 79.1
- COc1cc2c(CCNCc3cc(C)cc(Cl)c3)c[nH]c2cc1I: 96.4

The value of activation at 30 µM recorded for Cc1cc(Cl)cc(CNCCn2ncc3ccccc32)c1 [Compound 12, hydrochloride] when tested on 5-HT2A (Homo sapiens, UniProt P28223) reads 69.8

----------
assayTarget: 5-HT2A (Homo sapiens, UniProt P28223)
testName: Calcium Mobilization Assay (Calcium No-WashPLUS, Gq, FLIPR)
Type: cell-based
testContext: read-out: 5-HT2A % activation @30 uM Ca++ Flux
Counter-ions that a name gives are not always drawn.
observationType: activation at 30 µM (%)
Form entry: value (%) — number only.

Before answering, review these 5 worked examples.
• CCn1cc(CC(C)NCc2cc(C)cc(Cl)c2)c2ccccc21 (stereo not drawn) = 86.4
• Cc1cc(Cl)cc(CNC(C)Cc2c[nH]c3ccccc23)c1 (stereo not drawn) = 84.2
• Cc1cc(F)cc(CNCCc2c[nH]c3ccccc23)c1 [Compound 10, hydrochloride] = 72.6
• Cc1cc(Cl)cc(CNCCn2c(=O)oc3ccccc32)c1 = -5.4
• Cc1cc(Cl)cc(CN(C)CCc2c[nH]c3ccccc23)c1 = 93.3

Sure, the documented activation at 30 µM for Cc1cc(Cl)cc(CNC(C)Cc2cn(C)c3ccccc23)c1 (stereo not drawn) is 110

activation at 30 µM recorded for this compound, Cc1cc(Cl)cc(CNCc2c[nH]c3ccccc23)c1 [Compound 3, hydrochloride] , is 77.2

// sample Cc1cc(Cl)cc(CNCCc2cn(C)c3ccccc23)c1 , its activation at 30 µM was 112

Entry Cc1cc(Cl)cc(CNCCn2cnc3ccccc32)c1 [Compound 13, hydrochloride] , activation at 30 µM reported as 43.5
